Experiment: Selectivity expressed as a ratio of affinity against Alpha 1d-Adrenoceptor to that of 5-HT1A receptor
Test Readout: Selectivity
// no unit, no text: just the number

                                   molecule  measured
0  COc1cccc(C2CCC(NCCOc3ccccn3)CC2)c1 (stereo in doubt)        37
1         COc1cccc2c(CCCNCCOc3ccccn3)cccc12        97
2   COc1cccc2c(CCCN3CCN(c4ccccn4)CC3)cccc12         4
3  COc1cccc(C2CCC(N3CCN(c4ccccc4OC)CC3)CC2)c1 (stereo in doubt; trans)        21

Q: Look up Selectivity of COc1cccc2c1CCCC2CCCN1CCN(c2ccccn2)CC1 (configuration not stated) and report it.
Result: 74

Q: Look up Selectivity of COc1cccc2c1CCCC2CCCNCCOc1ccccn1 (configuration not stated) and report it.
Result: 55

Q: Look up Selectivity of COc1cccc(C2CCC(N3CCN(c4ccccn4)CC3)CC2)c1 (trans isomer) and report it.
Result: 590
